- target.of.assay: T1, human melanocortin-4 receptor (human, UniProt P32245 1-332)
- T1 construct: whole, on cells; in the thallium flux assay co-expressed with Kir7.1 (M125R); also called hMC4R; wildtype hMC4R
- assay: displacement of 125I-AGRP, HEK293 cells expressing hMC4R
pIC50: −log10 of the molar value. Square brackets hold non-standard residues; d marks the D form.
measurement.label: pIC50

>  <binder>
RCVRLHESCLGQQVPCCDPCATCYCRFFNAFCYCRKLGTAMNPCSRT (ligand, human, UniProt O00253 86-132, looked up, range 86-132; also called C-terminal domain of AGRP) [hAGRP(86-132)]

>  <measurement.label>
pIC50

>  <recorded.number>
7.92

$$$$
>  <binder>
cyclo(PRFFEAF[dP]) [c[Pro-Arg-Phe-Phe-Glu-Ala-Phe-DPro]]

>  <measurement.label>
pIC50

>  <recorded.number>
5.85

$$$$
>  <binder>
cyclo(PRFFDAF[dP]) [c[Pro-Arg-Phe-Phe-Asp-Ala-Phe-DPro]]

>  <measurement.label>
pIC50

>  <recorded.number>
5.89

$$$$
